Recorded values, source patent US5942508A.

Assay: Effect of arylcarboxylic acid on solubility of pyridonecarboxylic acid - 2 (Table 2)
Format: physicochemical
Conditions: 0.1% aqueous sodium dihydrogenphosphate, pH 8, 2-naphthoic acid added, pH 8, 0.1% aqueous sodium dihydrogenphosphate, 25° C., one week
Procedure: Experimental Example 2: Effect of arylcarboxylic acid on solubility of pyridonecarboxylic acid - 2 To a 0.1% aqueous sodium dihydrogenphosphate solution (100 ml) containing 2-naphthoic acid, 2-naphthylacetic acid or 2-naphthoxyacetic acid was added norfloxacin or enoxacin in excess, and the pH thereof was adjusted to 8-9 with hydrochloric acid or sodium hydroxide. […]
endpoint: solubility thermodynamic at 168 h (µg/mL)

[a] CCn1cc(C(=O)O)c(=O)c2cc(F)c(N3CCNCC3)nc21
[b] CCn1cc(C(=O)O)c(=O)c2cc(F)c(N3CCNCC3)cc21
// compare measured solubility thermodynamic at 168 h, left a , right b , return larger Indicate your choice by writing its label.
b
(b: 920 µg/mL, a: 540 µg/mL)

====

Experiment: Effect of arylcarboxylic acid on solubility of pyridonecarboxylic acid - 3 (Table 3)
Format: physicochemical
Conditions: 0.1% aqueous sodium dihydrogenphosphate, pH 8, 2-naphthoic acid added, pH 8, 0.1% aqueous sodium dihydrogenphosphate, 25° C., one week
endpoint: solubility thermodynamic at 168 h (µg/mL)
The reply should contain only the number, in µg/mL.

Suppose we examine the compound CCn1cc(C(=O)O)c(=O)c2cc(F)c(N3CCNC(C)C3)c(F)c21 (stereo not shown) ; what solubility thermodynamic at 168 h value has been reported?
2300

====

Assay: Effect of arylcarboxylic acid on solubility of pyridonecarboxylic acid - 2 (Table 2)
Type: physicochemical
Conditions: 0.1% aqueous sodium dihydrogenphosphate, pH 8, 2-naphthylacetic acid added, pH 8, 0.1% aqueous sodium dihydrogenphosphate, 25° C., one week
endpoint: solubility thermodynamic at 168 h (µg/mL)

CCn1cc(C(=O)O)c(=O)c2cc(F)c(N3CCNCC3)nc21 420
CCn1cc(C(=O)O)c(=O)c2cc(F)c(N3CCNCC3)cc21 580

====

Test: Effect of arylcarboxylic acid on solubility of pyridonecarboxylic acid - 2 (Table 2)
Type: physicochemical
Details: 0.1% aqueous sodium dihydrogenphosphate, pH 9, 2-naphthoxyacetic acid added, pH 9, 0.1% aqueous sodium dihydrogenphosphate, 25° C., one week
endpoint: solubility thermodynamic at 168 h (µg/mL)

[I] CCn1cc(C(=O)O)c(=O)c2cc(F)c(N3CCNCC3)nc21 [enoxacin]
[II] CCn1cc(C(=O)O)c(=O)c2cc(F)c(N3CCNCC3)cc21 [norfloxacin]
Compare I and II and name the one whose reported solubility thermodynamic at 168 h is smaller. Indicate your choice by writing its label.
I

====

Experiment: Effect of arylcarboxylic acid on solubility of pyridonecarboxylic acid - 2 (Table 2)
Format: physicochemical
Conditions: 0.1% aqueous sodium dihydrogenphosphate, pH 8, without addition, pH 8, 0.1% aqueous sodium dihydrogenphosphate, 25° C., one week
endpoint: solubility thermodynamic at 168 h (µg/mL)

[A] CCn1cc(C(=O)O)c(=O)c2cc(F)c(N3CCNCC3)cc21
[B] CCn1cc(C(=O)O)c(=O)c2cc(F)c(N3CCNCC3)nc21
// compare measured solubility thermodynamic at 168 h, left A , right B , return larger Indicate your choice by writing its label.
A

====

Test: Effect of arylcarboxylic acid on solubility of pyridonecarboxylic acid - 1 (Table 1)
Type: physicochemical
Conditions: 0.1% aqueous sodium dihydrogenphosphate, pH 8, without addition, pH 8, 0.1% aqueous sodium dihydrogenphosphate, 25° C., one week
endpoint: solubility thermodynamic at 168 h (µg/mL)

[I] CCn1cc(C(=O)O)c(=O)c2cc(F)c(N3CCNCC3)nc21
[II] CCn1cc(C(=O)O)c(=O)c2cc(F)c(N3CCNCC3)cc21
// compare measured solubility thermodynamic at 168 h, left I , right II , return larger Indicate your choice by writing its label.
II
